Where these numbers come from: patent US7713939B2

Record form. Attribute: log10 IC50. Fill in for each entry.
System: MV522 (human lung carcinoma cell line)
Test: 2 hour exposure, [3H]-thymidine incorporation
Assay type: cell-based
Please note: log10 values; quantity IC50; unit µM.

Problem: Recorded log10 IC50 for CC1=C(CSCC(O)CO)C2=C(C)C3(CC3)C(C)(O)C(=O)C2=C1 (stereo not shown) [Compound 32] , please?
Solution: -0.23

Problem: Recorded log10 IC50 for CC1=C2C(=CC3(C)COCOC23)C(=O)C(C)(O)C12CC2 (stereo not shown) [Compound 14] , please?
Solution: -0.94

Problem: Recorded log10 IC50 for CC(=O)OCOCC1=C(C)C=C2C(=O)C(C)(O)C3(CC3)C(C)=C21 (stereo not shown) [Compound 8] , please?
Solution: -0.06

Problem: Recorded log10 IC50 for CC1=C(CC2CC(C=O)CC(C=O)C2O)C2=C(C)C3(CC3)C(C)(O)C(=O)C2=C1 (mixture of isomers) [Compound 13] , please?
Solution: 0.71

Problem: Recorded log10 IC50 for CC1=C(C=O)C2=C(C)C3(CC3)C(C)(O)C(=O)C2=C1 (stereo not shown) [Compound 11] , please?
Solution: 0.69

Problem: Recorded log10 IC50 for CC1=C(CSc2ccc(O)cc2)C2=C(C)C3(CC3)C(C)(O)C(=O)C2=C1 (stereo not shown) [Compound 23] , please?
Solution: 0.47
